# Tested on: Caco-2
# Protocol Description: cell viability relative to DMSO; higher = less toxic
# Measurement Setup: 72 h; 100 nM

# Compound, cell viability (%)
measured = [
    ("NC(=O)c1ccc(-c2nc(-c3ccccn3)c(-c3ccc4c(c3)OCO4)[nH]2)cc1", 92.5),
    ("O=C(NCCCN1CCC2(CC1)OCc1ccccc12)[C@H]1CCCN1Cc1ccccc1", 101),
    ("Cc1ccc(-c2cc(C(F)(F)F)nn2-c2ccc(S(N)(=O)=O)cc2)cc1", 105),
    ("O=C1N(c2ccccc2)c2ccccc2C1(Cc1ccncc1)Cc1ccncc1", 88.3),
    ("CN(Cc1ccccc1)C(=O)[C@H](Cc1ccc2ccccc2c1)NC(=O)[C@@H]1C[C@@H](O)CN1C(=O)c1cn(C)c2ccccc12", 99.2),
    ("CCCn1c(=O)c2[nH]cnc2n(-c2ccc(Cl)cc2)c1=O", 94.4),
    ("CC#CCC(C)[C@H](O)/C=C/[C@@H]1[C@H]2C/C(=C/CCCC(=O)O)C[C@H]2C[C@H]1O (stereo partly drawn)", 100),
    ("NS(=O)(=O)c1ccc(-n2nc(C(F)(F)F)cc2-c2ccc(Cl)cc2)cc1", 86.3),
]

----------
Let's look at some molecules and their measured relative viability EC50.
# Tested on: HepG2
# Protocol Description: relative viability EC50 (midpoint between 100% and the lowest measured viability); higher = less toxic
# Measurement Setup: 72 h

# Molecule, relative viability EC50
data = [
    ("CCN1C[C@H](C)n2c(c(O)c3c(=O)n(Cc4ccc(F)c(Cl)c4)nc(C(=O)NC)c32)C1=O [MK-2048]", "> 10 µM"),
    ("COc1ccc(C(=O)c2ccccc2)c(O)c1 [oxybenzone]", "> 10 µM"),
    ("O=C(CCCl)NCCc1ccccc1 [fenaclon]", "> 10 µM"),
    ("C[C@H]1CC[C@H](n2c3cnccc3c3cnc(Nc4ccc5c(n4)CCN(C(=O)CO)C5)nc32)CC1 [AMG-925]", "> 10 µM"),
    ("CN1C(=O)N[C@H](Cc2c[nH]c3c(Cl)cccc23)C1=O [necrostatin-2]", "> 10 µM"),
    ("CCOc1ccc2ccccc2c1C(=O)N[C@@H]1C(=O)N2[C@@H]1SC(C)(C)[C@@H]2C(=O)O [nafcillin]", "> 10 µM"),
    ("O=C(O)CCCCC(CCSCc1ccccc1)SCc1ccccc1 (stereo not drawn) [CPI-613]", "> 10 µM"),
    ("c1ccc2c(-c3cnn4cc(-c5ccc(N6CCNCC6)cc5)cnc34)ccnc2c1", "1.57 µM"),
    ("CCCC[C@@H](NC(=O)[C@@H](Cc1cn(C(=O)OC)c2ccccc12)NC(=O)[C@H](CC(C)(C)C)NC(=O)N1[C@H](C)CCC[C@@H]1C)C(=O)O [BQ-788]", "> 10 µM"),
    ("CC(C)[C@@H](CS(=O)(=O)C(C)C)N1C(=O)[C@@](C)(CC(=O)O)C[C@H](c2cccc(Cl)c2)[C@H]1c1ccc(Cl)cc1 [AMG-232]", "0.266 µM"),
    ("CC#CCC(C)[C@H](O)/C=C/[C@@H]1[C@H]2C/C(=C/CCCC(=O)O)C[C@H]2C[C@H]1O (stereo partly drawn) [iloprost]", "> 10 µM"),
    ("COc1cc2c(cc1OC)CC(=O)N(CCCN(C)C[C@H]1Cc3cc(OC)c(OC)cc31)CC2 [ivabradine]", "> 10 µM"),
    ("O=C(O)c1cc(C(=O)O)c(C(=O)N(Cc2cccc(Oc3ccccc3)c2)[C@H]2CCCc3ccccc32)cc1C(=O)O", "> 10 µM"),
    ("CC(N)C12CC3CC(CC(C3)C1)C2 (stereo not drawn) [rimantadine]", "> 10 µM"),
    ("CS(=O)(=O)Nc1ccc(-c2coc3cc(OCc4cccc(C(=O)O)c4)ccc3c2=O)cc1", "> 10 µM"),
    ("CC1(C)CCC(C)(C)c2cc(C(=O)Nc3ccc(C(=O)O)cc3)ccc21 [AM-580]", "> 10 µM"),
    ("CCCCCCCCCCCC(=O)N(CCO)CCO [lauric-diethanolamide]", "> 10 µM"),
    ("O=C(O)C1=CCNCC1 [isoguvacine]", "> 10 µM"),
    ("NC(N)=Nc1nc(CSCC/C(N)=N/S(N)(=O)=O)cs1 [famotidine]", "> 10 µM"),
    ("NS(=O)(=O)c1ccc(-n2nc(C(F)(F)F)cc2-c2ccc(Cl)cc2)cc1 [SC-236]", "> 10 µM"),
    ("C=CC[C@@H]1/C=C(\\C)C[C@H](C)C[C@H](OC)[C@H]2O[C@@](O)(C(=O)C(=O)N3CCCC[C@H]3C(=O)O[C@H](/C(C)=C/[C@@H]3CC[C@@H](O)[C@H](OC)C3)[C@H](C)[C@@H](O)CC1=O)[C@H](C)C[C@@H]2OC [tacrolimus]", "> 10 µM"),
    ("Cc1ncc(COP(=O)([O-])[O-])c(CN(CCN(CC(=O)O)Cc2c(COP(=O)([O-])O)cnc(C)c2O)CC(=O)O)c1O.[Mn].[Na+].[Na+].[Na+] [Mangafodipir (trisodium)]", "> 10 µM"),
    ("CC(C)OC(=O)c1cc2c(OC[C@@H](O)CNC(C)(C)C)cccc2[nH]1", "> 10 µM"),
    ("CC1(C)[C@@H]2C[C@@H](O)[C@@](C)(O)[C@H]1C2 [2,3-cis/exo-pinanediol]", "> 10 µM"),
    ("NC(=O)OCC(COC(N)=O)c1ccccc1 [felbamate]", "> 10 µM"),
    ("CN1c2c([nH]c(N)nc2=O)NC[C@@H]1CNc1ccc(C(=O)N[C@@H](CCC(=O)O)C(=O)O)cc1 [metafolin]", "> 10 µM"),
    ("Cc1cc(N2CCOCC2)cc2[nH]c(-c3c(NC[C@@H](O)c4cccc(Cl)c4)cc[nH]c3=O)nc12", "0.45 µM"),
    ("Nc1nc(=O)n([C@H]2C[C@H](O)[C@@H](CO)O2)cc1F [fdcyd]", "0.0346 µM"),
    ("CC[N+](CC)(CC(=O)Nc1c(C)cccc1C)Cc1ccccc1 [denatonium-benzoate]", "> 10 µM"),
    ("CCCn1c(=O)c2[nH]cnc2n(-c2ccc(Cl)cc2)c1=O [arofylline]", "> 10 µM"),
    ("OCC[N+]12CN3CN(CN(C3)C1)C2 [Y-11]", "> 10 µM"),
    ("c1cncc(CN2CCC(n3ncc4c(N5CCOCC5)nc(-c5ccc6[nH]ccc6c5)nc43)CC2)c1 [WAY-600]", "1.44 µM"),
    ("CCCCNC(=O)[C@@H]1Cc2ccccc2N1C(=O)[C@@H](N)CC [butabindide]", "> 10 µM"),
]

----------
Here the recorded drug sensitivity score is given for each entry.
# System: U2OS
# Protocol Description: drug sensitivity score (DSS) for viability; higher = more toxic; extreme values may be limits of the assay
# Measurement Setup: 72 h
Experimental Endpoint: drug sensitivity score

# Molecule, Experimental Endpoint, Readout Value
records = [
    ("NC(CO)(CO)CO", "drug sensitivity score", 0),
    ("CCn1cc(C(=O)O)c(=O)c2cc(F)c(N3CCN(C)CC3)cc21", "drug sensitivity score", 0),
    ("Cc1cc(N2CCOCC2)cc2[nH]c(-c3c(NC[C@@H](O)c4cccc(Cl)c4)cc[nH]c3=O)nc12", "drug sensitivity score", 7.6),
    ("NS(=O)(=O)C#Cc1ccccc1", "drug sensitivity score", 5),
    ("Nc1ccn([C@@H]2CS[C@H](CO)O2)c(=O)n1", "drug sensitivity score", 0),
    ("Cc1ccc(S(=O)(=O)NC(=O)NN2CCCCCC2)cc1 [tolazamide]", "drug sensitivity score", 0),
    ("COc1cc2c(cc1Cc1cccc(Cl)c1F)c(=O)c(C(=O)O)cn2[C@H](CO)C(C)C", "drug sensitivity score", 0.5),
    ("COc1ccc(C(=O)c2ccccc2O)c(O)c1", "drug sensitivity score", 0),
    ("C[C@@H](CN)CC(=O)O", "drug sensitivity score", 0),
    ("CCCC(C)C1(CC)C(=O)NC(=O)NC1=O (stereo unspecified)", "drug sensitivity score", 0),
    ("Cc1cc(C)c(Nc2ccnc(Nc3ccc(C#N)cc3)n2)c(C)c1", "drug sensitivity score", 3.4),
    ("CC(C)(C)NCC(O)COc1cccc2[nH]c(C#N)cc12 (stereo unspecified)", "drug sensitivity score", 0),
    ("O=C(O)C(Cl)Cl [dichloroacetate]", "drug sensitivity score", 0),
    ("CC(=O)OCC(=O)[C@@]1(O)CC[C@H]2[C@@H]3CCC4=CC(=O)CC[C@]4(C)[C@H]3C(=O)C[C@@]21C [cortisone-acetate]", "drug sensitivity score", 0),
    ("O=C(NN1C(=O)[C@@H]2[C@@H]3C=C[C@@H]([C@H]4C[C@@H]34)[C@@H]2C1=O)c1ccc(C(F)(F)F)cc1", "drug sensitivity score", 0),
    ("O=C1CC2(CCCC2)CC(=O)N1CCCCNC[C@H]1COc2ccccc2O1 (racemic)", "drug sensitivity score", 0),
    ("O=S(=O)(N[C@H]1CC[C@@](c2cc(F)ccc2F)(S(=O)(=O)c2ccc(Cl)cc2)CC1)C(F)(F)F", "drug sensitivity score", 0),
    ("CSc1ccccc1OCC(O)CNC(C)C (stereo unspecified)", "drug sensitivity score", 0),
    ("Clc1cccc(Nc2nnc(-c3ccccc3)c3ccccc23)c1", "drug sensitivity score", 0),
    ("O=C(O)c1ccccc1C(=O)Nc1ccc(S(=O)(=O)Nc2nccs2)cc1", "drug sensitivity score", 0),
    ("O=C(O)C(Cc1ccccc1[N+](=O)[O-])=NNc1nc(-c2ccc(Cl)c(Cl)c2)cs1", "drug sensitivity score", 0),
]
